- Test system: Enterobacter cloacae 1321 E
- experiment_notes: In vitro anti-bacterial activity test (MIC, two-fold dilution method) against the standard strains
- Format: cell-based
- experimental_context: Table 1 strain 20: Enterobacter cloacae 1321 E
MIC less than 0.03 µg/mL is Satisfied; MIC greater than or equal to 0.03 µg/mL is Not satisfied.

molecule: CC(O)C(=O)O.NC1CC12CCN(c1c(F)cc3c(=O)c(C(=O)O)cn(C4CC4)c3c1F)C2 (centres unmarked)
label_value: Satisfied
--
molecule: CNC1CC12CCN(c1c(F)cc3c(=O)c(C(=O)O)cn(C4CC4)c3c1Cl)C2 (centres unmarked)
label_value: Satisfied
--
molecule: CNC1CC12CCN(c1cc3c(cc1F)c(=O)c(C(=O)O)cn3C1CC1)C2 (centres unmarked)
label_value: Not satisfied
--
molecule: C[C@H]1COc2c(N3CCC4(CC4C(=O)O)C3)c(F)cc3c(=O)c(C(=O)O)cn1c23 (some centres unmarked)
label_value: Not satisfied
--
molecule: CC1COc2c(N3CCN(C)CC3)c(F)cc3c(=O)c(C(=O)O)cn1c23 (centres unmarked) [Ofloxacin, ofloxacin, reference compound]
label_value: Satisfied
--
molecule: Nc1c(F)c(N2CCC3(CC3N)C2)c(F)c2c1c(=O)c(C(=O)O)cn2C1CC1 (centres unmarked)
label_value: Satisfied
--
molecule: CNC1CC12CCN(c1c(F)cc3c(=O)c(C(=O)O)cn(C4CC4)c3c1F)C2 (centres unmarked)
label_value: Satisfied

Please turn your attention to the following entry.
Problem: Find out if reported MIC for NCC1CC12CCN(c1c(F)cc3c(=O)c(C(=O)O)cn(C4CC4)c3c1F)C2 (centres unmarked) is less than 0.03 µg/mL
Solution: Not satisfied

###

Each entry below lists one item and its recorded MIC value.
- Test system: Klebsiella aerogenes 1082 E
- experiment_notes: In vitro anti-bacterial activity test (MIC, two-fold dilution method) against the standard strains
- Assay type: cell-based
- experimental_context: Table 1 strain 17: Klebsiella aerogenes 1082 E
Enter your answer as a number in ng/mL; do not include the unit.

molecule: COc1c(N2CCC3(CC3N)C2)c(F)cc2c(=O)c(C(=O)O)cn(C3CC3)c12 (stereo not drawn)
unit_string: ng/mL
MIC: 7
//
molecule: C[C@H]1COc2c(N3CCC4(CC4N)C3)c(F)cc3c(=O)c(C(=O)O)cn1c23 (stereo partly drawn)
unit_string: ng/mL
MIC: 4

Switching to the query record.
Problem: Indicate the recorded MIC value for this molecule: CNC1CC12CCN(c1c(F)cc3c(=O)c(C(=O)O)cn(C4CC4)c3c1Cl)C2 (stereo not drawn)
Solution: 25

###

- Tested on: Pseudomonas aeruginosa 1771 M
- experiment_notes: In vitro anti-bacterial activity test (MIC, two-fold dilution method) against the standard strains
- Type: cell-based
- experimental_context: Table 1 strain 15: Pseudomonas aeruginosa 1771 M
We begin with a simple list: items and their reported MIC.
Provide only the numeric value, understood in µg/mL.

Some entries whose results are on file:
compound: NC1CC12CCCN(c1c(F)cc3c(=O)c(C(=O)O)cn(C4CC4)c3c1F)C2 (stereo not shown)
observable: MIC
unit_string: µg/mL
quantitative_result: 0.781
--
compound: NC1CC12CCN(c1c(F)cc3c(=O)c(C(=O)O)cn(C4CC4)c3c1F)C2 (stereo not shown)
observable: MIC
unit_string: µg/mL
quantitative_result: 0.195
--
compound: CC1COc2c(N3CCN(C)CC3)c(F)cc3c(=O)c(C(=O)O)cn1c23 (stereo not shown) [Ofloxacin, ofloxacin, reference compound]
observable: MIC
unit_string: µg/mL
quantitative_result: 0.391

Read the next record carefully.
Problem: Supply measured MIC of CNC1CC12CCN(c1c(F)c(N)c3c(=O)c(C(=O)O)cn(C4CC4)c3c1F)C2 (stereo not shown) in your reply.
Solution: 0.391
